B1: CDC25A (parent)
chain: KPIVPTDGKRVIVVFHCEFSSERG

Variants of: B1
Assay: protein stability index of a GFP-peptide fusion (GPS, HEK-293T) (PSI 1-6); higher = more stable;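 further: lentivirally expressed fusions sorted by FACS into six bins by GFP to DsRed ratio, PSI derived from sequencing read proportions per bin multiplied by bin number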
Conditions: c terminus: a fixed tail appended
Output y for protein stability index not less than 3; output n otherwise.

Query :: Hi team, for `S20I` , is the recorded protein stability index at or above 3?
Result :: y

Query :: Reported protein stability index reaches at least 3 for `R10T` ?
Result :: n

Query :: In plain terms: is recorded protein stability index at least 3 for `R10V` ?
Result :: n

Origin of measurements: the supplement of paper PMC10567573
